Entries and their measured MIC follow.
tested on: S. aureus UAMS-1625; format: cell-based, Staphylococcus aureus; conditions: S. aureus UAMS-1625 (BV18); CLSI broth dilution, cation-adjusted Mueller Hinton broth, 20 h, 35 °C, read visually
Where a SMILES comes first, the peptide text is derived from it. Bridges are numbered along the chain shown (N, C = ends). [ ]: non-standard residue; d: D form. The star is where a group is joined. d(aIle) = CC[C@H](C)[C@@H](N)C(=O)O; X1 = CC[C@H](C)CCCCC(=O)*; dDab = NCC[C@@H](N)C(=O)O; Octanoyl = CCCCCCCC(=O)*; Dab = NCC[C@H](N)C(=O)O

compound	measured_on	MIC
CCCCCCCC(=O)N[C@@H](C(=O)N[C@H](CCN)C(=O)NCC(=O)N[C@H](CO)C(=O)N[C@H](Cc1c[nH]c2ccccc12)C(=O)N[C@@H](CO)C(=O)N[C@@H](CCN)C(=O)N[C@H](CCN)C(=O)NCC(=O)N[C@@H](CCC(=O)O)C(=O)N[C@H](C(=O)N[C@@H](C(=O)N[C@@H](C)C(=O)O)[C@@H](C)CC)C(C)C)C(C)C [Oct-Gly9] (Octanoyl-[dV][dDab]G[dS][dW]S[Dab][dDab]GEV[d(aIle)]A-OH)	S. aureus UAMS-1625	>64 mg/L

[in] Could you share which MIC value was measured for CCCCCCCC(=O)N[C@@H](C(=O)N[C@H](CCN)C(=O)NCC(=O)N[C@H](CO)C(=O)N[C@H](Cc1c[nH]c2ccccc12)C(=O)N[C@@H](CO)C(=O)N[C@@H](CCN)C(=O)N[C@H](CCN)C(=O)N[C@@H](CCN)C(=O)N[C@@H](CCC(=O)O)C(=O)N[C@H](C(=O)N[C@@H](C(=O)N[C@@H](C)C(=O)O)[C@@H](C)CC)C(C)C)C(C)C [Oct-Dab9] (Octanoyl-[dV][dDab]G[dS][dW]S[Dab][dDab][Dab]EV[d(aIle)]A-OH) ?
[out] >64 mg/L

[in] Queued: CC[C@H](C)CCCCC(=O)N[C@@H](CCN)C(=O)N[C@H](C(=O)N[C@@H](CCN)C(=O)N[C@H]1CCNC(=O)[C@H]([C@@H](C)O)NC(=O)[C@H](CCN)NC(=O)[C@H](CCN)NC(=O)[C@H](CC(C)C)NC(=O)[C@@H](CC(C)C)NC(=O)[C@H](CCN)NC1=O)[C@@H](C)O [colistin, reference compound] (X1-[Dab]T[Dab][Dab][Dab][dL]L[Dab][Dab]T; lactam 4-C (inferred); N-terminus assumed)
[out] >64 mg/L
